system: Alpha-glucosidase (Saccharomyces cerevisiae S288c, UniProt P53341+P38158+P07265)
protocol: Inhibition of Saccharomyces cerevisiae alpha-glucosidase assessed as release of p-nitrophenol using pNPG as substrate preincubated for 15 mins followed by substrate addition and measured after 5 mins by spectrophotometric assay
Assay type: protein assay
reportedMetric: IC50 (µM)

(I) C=C(C)/C=C/[C@@]1(C)C=CC2=C(O1)C(CC=C(C)C)=C1O[C@]34C(C(=O)[C@@H]1C2O)[C@@H](OC)[C@@H]1C[C@H]3C(C)(C)O[C@@]4(C/C=C(\C)C(=O)O)C1=O (some centres undefined)
(II) C=C(C)/C=C/C1(C)C=CC2=C(O1)C(CC=C(C)C)=C1O[C@]34C(C(=O)[C@@H]1C2O)[C@@H](O)[C@@H]1C[C@H]3C(C)(C)O[C@@]4(C/C=C(\C)C(=O)O)C1=O (some centres undefined)
Field: lower IC50 | Options: I / II To answer, give the label that identifies your chosen option.
II

---

system: Alpha-glucosidase (Saccharomyces cerevisiae S288c, UniProt P53341+P38158+P07265)
protocol: Inhibition of Saccharomyces cerevisiae alpha-glucosidase using PNPG as substrate preincubated for 15 mins followed by substrate addition and measured after 30 mins by spectrophotometric assay
Type: protein assay
reportedMetric: IC50 (µM)

Use the examples below as a reference point.
structureString | system | IC50 (µM)
C=C(C)/C=C/c1c(O)c(CC=C(C)C)c2oc3c(O)ccc(O)c3c(=O)c2c1O | Alpha-glucosidase (Saccharomyces cerevisiae S288c, UniProt P53341+P38158+P07265) | 84
O=c1c2cc(O)ccc2oc2cccc(O)c12 | Alpha-glucosidase (Saccharomyces cerevisiae S288c, UniProt P53341+P38158+P07265) | 145

(a) CC(C)=CC/C(C)=C/Cc1c(O)c(CC=C(C)C)c2oc3c(O)ccc(O)c3c(=O)c2c1O
(b) COc1c(CC=C(C)C)c(O)c2c(=O)c3c(O)ccc(O)c3oc2c1CC=C(C)C
(c) CC(C)=CC/C(C)=C/Cc1c(O)cc2oc3c(O)ccc(O)c3c(=O)c2c1O
# desc sort on IC50 across 3 compounds Please write the labels in the order that was asked for.
c, a, b

---

system: Alpha-glucosidase (Saccharomyces cerevisiae S288c, UniProt P53341+P38158+P07265)
protocol: Inhibition of Saccharomyces cerevisiae alpha-glucosidase assessed as release of p-nitrophenol using pNPG as substrate preincubated for 15 mins followed by substrate addition and measured after 15 mins by plate reader analysis
Type: protein assay
reportedMetric: IC50 (µg/mL)

structureString | system | uom | IC50
COc1c(O)cc2oc3ccc(O)cc3c(=O)c2c1O | Alpha-glucosidase (Saccharomyces cerevisiae S288c, UniProt P53341+P38158+P07265) | µg/mL | 7.6
COc1ccc2oc3ccc(O)cc3c(=O)c2c1OC | Alpha-glucosidase (Saccharomyces cerevisiae S288c, UniProt P53341+P38158+P07265) | µg/mL | 48.5
COc1c(O)cc(O)c2c(=O)c3cc(O)ccc3oc12 | Alpha-glucosidase (Saccharomyces cerevisiae S288c, UniProt P53341+P38158+P07265) | µg/mL | 12.8

(I) COc1c(O)cc2oc3ccc(O)c(OC)c3c(=O)c2c1O
(II) COc1ccc(O)c2c(=O)c3cc(O)ccc3oc12
Parameter metric = IC50. Return the lower-valued option from I and II . // output: label of the selected item
II
(II: 27.6 µg/mL, I: 63.4 µg/mL)

These data points were gathered from ChEMBL document CHEMBL5244222.
